pKa values by entry
parameter: pKa

{"compound": "COc1cccc(Nc2c3ccccc3nc3ccccc23)c1", "parameter": "pKa", "readout.value": 7.21}
{"compound": "COc1cc(NS(C)(=O)=O)ccc1Nc1c2ccccc2nc2ncccc12", "parameter": "pKa", "readout.value": 6.09}
{"compound": "BP(=O)(OC[C@H]1O[C@@H](n2cnc3c(N)ncnc32)[C@H](O)[C@@H]1O)OP(=O)(O)CP(=O)(O)O (stereo partly drawn)", "parameter": "pKa", "readout.value": 8.4}
{"compound": "CC(C)(C)NCC(O)c1ccc(O)c(CO)c1 (stereo not drawn)", "parameter": "pKa", "readout.value": 9.3}
{"compound": "CN(C)CCCNc1c2ccccc2nc2cccc([N+](=O)[O-])c12", "parameter": "pKa", "readout.value": 6.21}
{"compound": "COc1cc(NS(C)(=O)=O)ccc1Nc1c2ccccc2nc2cnccc12", "parameter": "pKa", "readout.value": 5.53}
{"compound": "COC(=O)c1ccccc1Nc1c2ccccc2nc2ccccc12", "parameter": "pKa", "readout.value": 6.3}
{"compound": "O=[N+]([O-])c1ccc(Nc2c3ccccc3nc3ccccc23)cc1", "parameter": "pKa", "readout.value": 5.58}
{"compound": "CS(=O)(=O)Nc1ccc(Nc2c3ccccc3nc3ccc(N)cc23)cc1", "parameter": "pKa", "readout.value": 7.15}
{"compound": "CCC12CCC(=O)C=C1c1c(cc(OCC(=O)OCC(=O)O)c(Cl)c1Cl)C2 (stereo not drawn)", "parameter": "pKa", "readout.value": 3.8}
{"compound": "C[N+](C)(C)Cc1ccc(S)cc1", "parameter": "pKa", "readout.value": 5.5}
{"compound": "Cc1nc(C)nc(N2C[C@@H](C)N(c3ccnc([C@@H](C)O)n3)[C@@H](C)C2)n1", "parameter": "pKa", "readout.value": 4.8}
{"compound": "O=[N+]([O-])c1cc(Cl)c(N=C2NCCN2)c(Cl)c1", "parameter": "pKa", "readout.value": 6.86}
{"compound": "Cc1cccc2nc3ccccc3c(Nc3ccc(NS(C)(=O)=O)cc3)c12", "parameter": "pKa", "readout.value": 6.43}
{"compound": "COc1cc(NS(C)(=O)=O)ccc1Nc1c2ccccc2nc2ccccc12", "parameter": "pKa", "readout.value": 7.43}
{"compound": "OB(O)C1=CCCS1", "parameter": "pKa", "readout.value": 7.16}
{"compound": "Cc1nc2c(CCc3ccccc3)cccn2c1CC#N", "parameter": "pKa", "readout.value": 6}
{"compound": "O=C(Nc1ccon1)N1CCN(Cc2cccc(Oc3ccc(Cl)cc3)c2)CC1", "parameter": "pKa", "readout.value": -2.97}
{"compound": "COc1cc(Cl)c(N=C2NCCN2)c(Cl)c1", "parameter": "pKa", "readout.value": 8.57}
{"compound": "NC(=O)CCc1ccc(Nc2c3ccccc3nc3ccccc23)cc1", "parameter": "pKa", "readout.value": 7.63}
{"compound": "O=C(C1CCN(c2ccncc2)CC1)N1CCN(S(=O)(=O)c2ccc(Br)cc2)CC1", "parameter": "pKa", "readout.value": 9.2}
{"compound": "COc1cc(NS(C)(=O)=O)ccc1Nc1c2ccccc2nc2c(Br)cccc12", "parameter": "pKa", "readout.value": 6.09}
{"compound": "CN(C)CCN=C(O)c1cccc2cc3ccccc3nc12", "parameter": "pKa", "readout.value": 3.54}
{"compound": "COc1cc(NS(C)(=O)=O)ccc1Nc1c2ccccc2nc2cc(C#N)ccc12", "parameter": "pKa", "readout.value": 5.94}
{"compound": "COc1cc(NS(C)(=O)=O)ccc1Nc1c2ccccc2nc2c(OC)cccc12", "parameter": "pKa", "readout.value": 7.39}
{"compound": "CC(=O)Nc1ccc2c(Nc3ccc(NS(C)(=O)=O)cc3)c3ccccc3[nH+]c2c1.CS(=O)(=O)[O-]", "parameter": "pKa", "readout.value": 7.34}
{"compound": "Cc1ccc(N=C2NCCN2)c(C)c1", "parameter": "pKa", "readout.value": 10.6}
{"compound": "CCCCNC(=O)NS(=O)(=O)c1ccc(C)cc1", "parameter": "pKa", "readout.value": 5.3}
{"compound": "c1c[nH]cn1", "parameter": "pKa", "readout.value": 6.99}
{"compound": "Clc1cccc(Nc2c3ccccc3nc3ccccc23)c1", "parameter": "pKa", "readout.value": 6.76}
{"compound": "NCCCF", "parameter": "pKa", "readout.value": 9.9}
{"compound": "Cc1ccc2nc3ccccc3c(Nc3ccc(NS(C)(=O)=O)cc3)c2c1", "parameter": "pKa", "readout.value": 7.23}
{"compound": "O=C(O)CN(CCN(CC(=O)O)CC(=O)O)CCN(CC(=O)O)C(COCc1ccccc1)C(=O)O (stereo not drawn)", "parameter": "pKa", "readout.value": 2.07}
{"compound": "CCc1ccc2c(Nc3ccc(NS(C)(=O)=O)cc3OC)c3ccccc3nc2c1", "parameter": "pKa", "readout.value": 7.65}
{"compound": "COc1cc(NS(C)(=O)=O)ccc1Nc1c2ccccc2nc2cc(C(F)(F)F)ccc12", "parameter": "pKa", "readout.value": 6.24}
{"compound": "Cc1cccc2c(Nc3ccc(NS(C)(=O)=O)cc3)c3ccccc3nc12", "parameter": "pKa", "readout.value": 7.15}
{"compound": "Fc1ccc(Nc2c3ccccc3nc3ccccc23)cc1", "parameter": "pKa", "readout.value": 7.5}
{"compound": "Cn1ccnc1", "parameter": "pKa", "readout.value": 7.12}
